Reported pEC50 is given for each of the following compounds.
- measured on: F508delCFTR (Homo sapiens, UniProt P13569, DEL508-508)
- Construct: expressed in transfected cells; host or cells: CFBE41o- human lung-derived epithelial cell line, doxycycline-inducible expression
- Sequence (P13569 with tags, fused parts or gaps DEL508-508): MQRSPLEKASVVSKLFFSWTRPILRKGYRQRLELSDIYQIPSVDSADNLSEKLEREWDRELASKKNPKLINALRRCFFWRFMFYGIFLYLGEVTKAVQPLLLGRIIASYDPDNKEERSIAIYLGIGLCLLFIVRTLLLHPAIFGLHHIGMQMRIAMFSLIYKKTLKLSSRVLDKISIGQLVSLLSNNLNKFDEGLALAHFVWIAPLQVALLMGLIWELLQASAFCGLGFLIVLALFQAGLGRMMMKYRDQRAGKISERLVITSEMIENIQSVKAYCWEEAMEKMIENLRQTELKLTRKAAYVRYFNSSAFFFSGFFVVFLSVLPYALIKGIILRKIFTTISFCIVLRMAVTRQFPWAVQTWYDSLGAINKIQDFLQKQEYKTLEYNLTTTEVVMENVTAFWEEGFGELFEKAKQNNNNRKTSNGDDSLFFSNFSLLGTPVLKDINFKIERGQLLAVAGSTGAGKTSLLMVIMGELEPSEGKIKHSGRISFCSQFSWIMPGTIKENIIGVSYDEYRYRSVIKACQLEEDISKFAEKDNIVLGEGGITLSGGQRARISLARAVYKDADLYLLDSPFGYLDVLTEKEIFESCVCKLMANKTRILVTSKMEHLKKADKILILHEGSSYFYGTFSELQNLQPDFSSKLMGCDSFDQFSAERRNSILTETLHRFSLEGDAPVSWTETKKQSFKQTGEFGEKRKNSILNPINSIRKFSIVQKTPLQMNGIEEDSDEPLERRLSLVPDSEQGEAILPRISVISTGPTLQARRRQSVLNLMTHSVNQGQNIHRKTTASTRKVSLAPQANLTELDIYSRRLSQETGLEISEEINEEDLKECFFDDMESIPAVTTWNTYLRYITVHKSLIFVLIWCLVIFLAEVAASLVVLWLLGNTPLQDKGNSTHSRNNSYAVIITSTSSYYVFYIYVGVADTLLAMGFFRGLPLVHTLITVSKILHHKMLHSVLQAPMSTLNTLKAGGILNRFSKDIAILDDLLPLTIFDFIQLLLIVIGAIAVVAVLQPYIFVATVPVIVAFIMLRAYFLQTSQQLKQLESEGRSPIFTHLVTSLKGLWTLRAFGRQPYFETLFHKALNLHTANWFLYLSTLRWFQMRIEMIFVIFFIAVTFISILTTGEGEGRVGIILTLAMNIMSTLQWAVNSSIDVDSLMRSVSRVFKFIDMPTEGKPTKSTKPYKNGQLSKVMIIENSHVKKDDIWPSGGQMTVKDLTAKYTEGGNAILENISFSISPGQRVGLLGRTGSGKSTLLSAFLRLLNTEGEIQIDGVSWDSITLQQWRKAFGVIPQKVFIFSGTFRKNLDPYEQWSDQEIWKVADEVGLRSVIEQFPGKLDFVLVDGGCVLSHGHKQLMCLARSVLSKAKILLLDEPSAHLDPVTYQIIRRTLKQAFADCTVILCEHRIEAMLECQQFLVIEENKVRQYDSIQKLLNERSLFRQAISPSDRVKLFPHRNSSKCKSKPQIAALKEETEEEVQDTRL
- experiment description: Cell Surface Expression-Horse Radish Peroxidase (CSE-HRP) assay in CFBE41o-F508delCFTR-HRP cells
- Assay type: cell-based
- condition set: with co-corrector (2 μM); CFBE41o-F508delCFTR-HRP cells, 18-24 hours at 33° C., luminescence; read-out: EC50 (with co-corrector)
Interpret pEC50 as the negative base-10 log of the concentration measured in mol/L.

Recorded pEC50 of COc1ccc(C)cc1[C@]1(C(=O)NS(=O)(=O)c2cccc3nc(C)ccc23)C[C@@H]1c1ccccc1 (single isomer, unassigned) [Example 3] , please.
6.00

Please look at the following compound next.
Recorded pEC50 of COc1ccc(C)cc1[C@@]1(C(=O)NS(=O)(=O)c2cccc3nc(C)ccc23)C[C@H]1c1cnc(C(C)C)cn1 (racemic) [Example 61] , please.
5.95

====

- measured on: F508delCFTR (Homo sapiens, UniProt P13569, DEL508-508)
- Construct: expressed in transfected cells; host or cells: CFBE41o- human lung-derived epithelial cell line, doxycycline-inducible expression
- experiment description: Cell Surface Expression-Horse Radish Peroxidase (CSE-HRP) assay in CFBE41o-F508delCFTR-HRP cells
- Type: cell-based
- condition set: with co-corrector (2 μM); CFBE41o-F508delCFTR-HRP cells, 18-24 hours at 33° C., luminescence; read-out: EC50 (with co-corrector)
Reported EC50 is given for each of the following molecules.
# number only, unit nM dropped from output

See these solved cases before continuing.
Recorded EC50 of CCOc1nc(C2C[C@@]2(C(=O)NS(=O)(=O)c2cccc3nc(C)ccc23)c2cc(C)ccc2OC)ccc1F (stereo in doubt) [Example 106] , please.
222

Recorded EC50 of COc1ccc(C)cc1[C@]1(C(=O)NS(=O)(=O)c2cccc3nc(C)ccc23)C[C@@H]1c1cnc(C)c(F)c1 (single isomer, unassigned) [Example 100] , please.
2780

Recorded EC50 of COc1ccc(C)cc1[C@@]1(C(=O)NS(=O)(=O)c2cccc3nc(C)ccc23)C[C@H]1c1ccccn1 [Example 13] , please.
1490

Please look at the following molecule next.
Recorded EC50 of COc1ccc(C)cc1[C@]1(C(=O)NS(=O)(=O)c2cccc3nc(C)ccc23)C[C@@H]1c1ccc(C(C)C)nc1OC (single isomer, unassigned) [Example 88] , please.
534

====

- measured on: F508del/F508del CFTR (Homo sapiens, UniProt P13569, DEL508-508)
- Construct: cells isolated from CF patients with the homozygous mutation; endogenous in cells; host or cells: primary human bronchial epithelial (hBE) cells from CF patients homozygous for F508del
- experiment description: Trans-Epithelial Current Clamp (TECC) assay using primary human bronchial epithelial cells
- Assay type: cell-based
- condition set: maximum percent activity relative to positive control (co-corrector 0.15 μM + potentiator 0.45 μM = 100%); primary hBE cells F508del/F508del
result type: Emax (% Dual)
# number only, unit % Dual dropped from output

Recorded Emax (% Dual) of COc1ccc(C)cc1[C@@]1(C(=O)NS(=O)(=O)c2cccc3nc(C)ccc23)CC1c1ccc(C)nc1 (stereo in doubt) , please.
194

Recorded Emax (% Dual) of COc1ccc(C)cc1[C@@]1(C(=O)NS(=O)(=O)c2cccc3nc(C)ccc23)C[C@H]1c1ccccc1C(F)(F)F (single isomer, unassigned) , please.
307

Recorded Emax (% Dual) of COc1ccc([C@@H]2C[C@]2(C(=O)NS(=O)(=O)c2cccc3nc(C)ccc23)c2cc(C)ccc2OC)c(OC)n1 (racemic) [Example 79] , please.
205

Recorded Emax (% Dual) of COc1cccc([C@@H]2C[C@]2(C(=O)NS(=O)(=O)c2cccc3nc(C)ccc23)c2cc(C)ccc2OC)c1 (racemic) [Example 15] , please.
308

---
Recorded Emax (% Dual) of COc1ccc(C)cc1[C@@]1(C(=O)NS(=O)(=O)c2cccc3nc(C)ccc23)C[C@H]1c1ccc(C)nc1OC (single isomer, unassigned) , please.
206

====

- measured on: F508delCFTR (Homo sapiens, UniProt P13569, DEL508-508)
- Construct: expressed in transfected cells; host or cells: CFBE41o- human lung-derived epithelial cell line, doxycycline-inducible expression
- experiment description: Cell Surface Expression-Horse Radish Peroxidase (CSE-HRP) assay in CFBE41o-F508delCFTR-HRP cells
- Type: cell-based
- condition set: without co-corrector; normalized to on-plate positive control corrector (2 μM)
result type: Maximum % activity (without co-corrector) (%)
# number only, unit % dropped from output

See these solved cases before continuing.
Recorded Maximum % activity (without co-corrector) of COc1nccc([C@@H]2C[C@]2(C(=O)NS(=O)(=O)c2cccc3nc(C)ccc23)c2cc(C)ccc2OC)n1 (racemic) [Example 95] , please.
749

Recorded Maximum % activity (without co-corrector) of COc1ccc(C)cc1[C@@]1(C(=O)NS(=O)(=O)c2cccc3nc(C)ccc23)C[C@H]1c1ccc(C(C)C)nc1OC (racemic) [Example 78] , please.
825

Recorded Maximum % activity (without co-corrector) of COc1ccc([C@H]2C[C@@]2(C(=O)NS(=O)(=O)c2cccc3nc(C)ccc23)c2cc(C)ccc2OC)c(C)n1 , please.
651

Please look at the following compound next.
Recorded Maximum % activity (without co-corrector) of COc1cnc([C@@H]2C[C@]2(C(=O)NS(=O)(=O)c2cccc3nc(C)ccc23)c2cc(C)ccc2OC)cn1 (racemic) [Example 39] , please.
563

====

- measured on: F508del/F508del CFTR (Homo sapiens, UniProt P13569, DEL508-508)
- Construct: cells isolated from CF patients with the homozygous mutation; endogenous in cells; host or cells: primary human bronchial epithelial (hBE) cells from CF patients homozygous for F508del
- experiment description: Trans-Epithelial Current Clamp (TECC) assay using primary human bronchial epithelial cells
- Format: cell-based
- condition set: maximum percent activity relative to positive control (co-corrector 0.15 μM + potentiator 0.45 μM = 100%); primary hBE cells F508del/F508del
- Source text: A cell-based assay was developed using the primary human bronchial epithelial cells (hBE cells) with F508del/F508del CFTR and other mutations. Primary human bronchial epithelial (hBE) cells from CFTR patients with homozygous F508del/F508del mutation were expanded from 1×10^6 to 250×10^6 cells (Neuberger, T et al., 2011, Methods Mol Biol 741:39-54). […]
Reported Emax (% Dual) is given for each of the following compounds.
# number only, unit % Dual dropped from output

See these solved cases before continuing.
Recorded Emax (% Dual) of COc1cccc([C@H]2C[C@@]2(C(=O)NS(=O)(=O)c2cccc3nc(C)ccc23)c2cc(C)ccc2OC)c1 (single isomer, unassigned) , please.
304

Recorded Emax (% Dual) of COc1ccc(C)cc1[C@]1(C(=O)NS(=O)(=O)c2cccc3nc(C)ccc23)C[C@@H]1c1cnc(OC)c(Cl)c1 , please.
397

Please look at the following compound next.
Recorded Emax (% Dual) of COc1ccc(C)cc1[C@@]1(C(=O)NS(=O)(=O)c2cccc3nc(C)ccc23)C[C@H]1c1cccnc1OC (racemic) [Example 40] , please.
328

====

- measured on: F508delCFTR (Homo sapiens, UniProt P13569, DEL508-508)
- Construct: expressed in transfected cells; host or cells: CFBE41o- human lung-derived epithelial cell line, doxycycline-inducible expression
- experiment description: Cell Surface Expression-Horse Radish Peroxidase (CSE-HRP) assay in CFBE41o-F508delCFTR-HRP cells
- Type: cell-based
- condition set: with co-corrector (2 μM); CFBE41o-F508delCFTR-HRP cells, 18-24 hours at 33° C., luminescence; read-out: EC50 (with co-corrector)
- Description: A cellular assay for measuring the F508delCFTR cell surface expression after correction with test compounds either without or with a co-corrector (2 μM of 3-[(2R,4R)-4-({[1-(2,2-difluoro-1,3-benzodioxol-5-yl)cyclopropyl]carbonyl}amino)-7-methoxy-3,4-dihydro-2H-chromen-2-yl]benzoic acid), was developed in human lung derived epithelial cell line (CFBE4lo-) (Veit G et al, (2012) Mol Biol Cell. 23(21): 4188-4202). […] The raw counts from the experiment were analyzed using Accelrys® Assay Explorer v3.3. […]
result type: pEC50
Interpret pEC50 as the negative base-10 log of the concentration measured in mol/L.

See these solved cases before continuing.
Recorded pEC50 of COc1ccc(C)cc1[C@]1(C(=O)NS(=O)(=O)c2cccc3nc(C)ccc23)C[C@@H]1c1cccc(N(C)C)n1 , please.
5.99

Recorded pEC50 of COc1ccc(C)cc1[C@@]1(C(=O)NS(=O)(=O)c2cccc3nc(C)ccc23)C[C@H]1c1cnc(C)c(F)c1 (single isomer, unassigned) , please.
6.05

Please look at the following molecule next.
Recorded pEC50 of COc1ccc(C)cc1[C@@]1(C(=O)NS(=O)(=O)c2cccc3nc(C)ccc23)C[C@H]1c1ccc(C)nc1OC (single isomer, unassigned) , please.
6.09
